Observed pIC50 values for Matrix metalloproteinase-9 (Homo sapiens, UniProt P14780) are listed in what follows.
Recall that pIC50 is obtained by taking minus log10 of the concentration measured in molar.

Take a look at these entries with their results.
Inquiry: Report measured pIC50; entry is CCCCCCCCOc1ccc(CC2(C)C(=O)NC(=O)NC2=O)cc1
Reply text: 6.79

Inquiry: Given the compound CCCCCCC1(c2ccc(-c3ccccc3)cc2)C(=O)NC(=S)NC1=O , write its reported pIC50.
Reply text: 4.92

Inquiry: Supply pIC50 value. Item: CCCCCCC1(c2ccccc2)C(=O)NC(=O)NC1=O
Reply text: 6.48

Inquiry: Tell us which pIC50 value is on record for CCC1(c2ccc(-c3ccccc3)cc2)C(=O)NC(=O)NC1=O
Reply text: 6.16

Inquiry: Please list pIC50 recorded for the compound CCCCCCC1(c2ccc(Oc3ccccc3)cc2)C(=O)NC(=O)NC1=O
Reply text: 7.74

Inquiry: Return the recorded pIC50 value; entry: O=C1NC(=O)C(COCc2ccccc2)(c2ccc(Oc3ccccc3)cc2)C(=O)N1
Reply text: 7.77

Inquiry: # return recorded pIC50 for entry O=C1NC(=O)C(c2ccc(Oc3ccccc3)cc2)C(=O)N1
Reply text: 4.85

Inquiry: State its pIC50: CC1(c2ccccc2)C(=O)NC(=O)NC1=O
Reply text: 4.96

---
Inquiry: Please report pIC50 for the following compound: CCCCCCC1(c2ccc(-c3ccccc3)cc2)C(=O)NC(=O)NC1=O
Reply text: 6.06

* * *

target: Stromelysin-1 (Homo sapiens)
Sequence (P08254 whole entry): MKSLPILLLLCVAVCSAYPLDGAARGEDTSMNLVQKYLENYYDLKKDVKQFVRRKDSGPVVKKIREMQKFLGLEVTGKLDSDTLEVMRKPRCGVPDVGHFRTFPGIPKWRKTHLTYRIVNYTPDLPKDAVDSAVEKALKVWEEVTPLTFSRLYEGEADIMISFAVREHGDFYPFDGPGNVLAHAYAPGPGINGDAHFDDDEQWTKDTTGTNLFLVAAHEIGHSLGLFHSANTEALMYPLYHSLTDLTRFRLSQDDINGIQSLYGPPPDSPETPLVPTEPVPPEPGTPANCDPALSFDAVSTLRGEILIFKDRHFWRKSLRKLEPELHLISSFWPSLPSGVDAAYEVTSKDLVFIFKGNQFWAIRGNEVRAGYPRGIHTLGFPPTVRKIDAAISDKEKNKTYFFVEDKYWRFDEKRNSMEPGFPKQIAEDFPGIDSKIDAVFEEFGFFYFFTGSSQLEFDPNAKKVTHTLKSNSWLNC
value-type: IC50 (nM)
Supply the numeric figure in nM, leaving out any unit text.

Here's what some known entries look like.
Inquiry: Respond only with IC50 recorded for CC1(c2ccc(Oc3ccccc3)cc2)C(=O)NC(=O)NC1=O
Reply text: 2000

Inquiry: Report IC50, nothing else, for this compound: CCCCCCC1(c2ccc(Oc3ccccc3)cc2)C(=O)NC(=O)NC1=O
Reply text: 2000

Inquiry: Return IC50 (reported value) for this compound: CCCCCCCCOc1ccc(CC2(C)C(=O)NC(=O)NC2=O)cc1
Reply text: 1000

Inquiry: Check the records and state IC50 for O=C1NC(=O)C(COCc2ccccc2)(c2ccc(Oc3ccccc3)cc2)C(=O)N1
Reply text: 930

Inquiry: Specify reported IC50 for the compound shown: CCCCCCC1(c2ccccc2)C(=O)NC(=O)NC1=O
Reply text: 30000

We now examine a further compound.
Inquiry: Query IC50 for CCC1(c2ccc(-c3ccccc3)cc2)C(=O)NC(=O)NC1=O
Reply text: 9000

* * *

Endpoint: IC50. System: 72 kDa type IV collagenase (Homo sapiens, UniProt P08253). Items follow.
Sequence (P08253 whole entry): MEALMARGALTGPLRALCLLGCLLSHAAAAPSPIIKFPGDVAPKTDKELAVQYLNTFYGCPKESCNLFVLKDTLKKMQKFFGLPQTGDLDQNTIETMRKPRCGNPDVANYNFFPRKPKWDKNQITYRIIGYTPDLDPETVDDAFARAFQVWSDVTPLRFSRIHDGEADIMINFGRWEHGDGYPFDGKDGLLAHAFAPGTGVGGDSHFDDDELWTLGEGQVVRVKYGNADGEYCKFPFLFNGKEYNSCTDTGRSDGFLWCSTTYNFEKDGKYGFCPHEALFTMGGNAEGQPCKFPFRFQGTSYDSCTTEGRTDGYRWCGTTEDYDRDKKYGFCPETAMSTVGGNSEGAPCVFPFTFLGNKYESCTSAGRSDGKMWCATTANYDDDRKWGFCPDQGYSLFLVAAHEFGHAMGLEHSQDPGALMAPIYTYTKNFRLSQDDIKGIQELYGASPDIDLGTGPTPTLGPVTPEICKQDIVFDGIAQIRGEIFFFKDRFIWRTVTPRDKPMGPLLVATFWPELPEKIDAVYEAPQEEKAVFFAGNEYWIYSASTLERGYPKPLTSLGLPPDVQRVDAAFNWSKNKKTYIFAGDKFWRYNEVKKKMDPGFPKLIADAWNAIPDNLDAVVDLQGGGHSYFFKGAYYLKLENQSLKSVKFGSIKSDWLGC
Give your result in nM as a bare value.

The examples below pair each entry with its known result.
Inquiry: Enter recorded IC50 with 72 kDa type IV collagenase (Homo sapiens, UniProt P08253) for CC1(c2ccccc2)C(=O)NC(=O)NC1=O here.
Reply text: 50000

Inquiry: Print 72 kDa type IV collagenase (Homo sapiens, UniProt P08253) IC50 for O=C1NC(=O)C(COCc2ccccc2)(c2ccc(Oc3ccccc3)cc2)C(=O)N1 .
Reply text: 19

Inquiry: Give the observed IC50 of O=C1NC(=O)C(c2ccc(Oc3ccccc3)cc2)C(=O)N1 for 72 kDa type IV collagenase (Homo sapiens, UniProt P08253).
Reply text: 9000

Inquiry: Write down measured IC50 (72 kDa type IV collagenase (Homo sapiens, UniProt P08253)) for this compound. CCCCCCC1(c2ccccc2)C(=O)NC(=O)NC1=O
Reply text: 1300

Inquiry: Tell me IC50 of CCCCCCC1(c2ccc(-c3ccccc3)cc2)C(=O)NC(=O)NC1=O when tested on 72 kDa type IV collagenase (Homo sapiens, UniProt P08253).
Reply text: 868

Inquiry: Please look at CC1(c2ccc(Oc3ccccc3)cc2)C(=O)NC(=O)NC1=O and tell me its recorded IC50 on 72 kDa type IV collagenase (Homo sapiens, UniProt P08253).
Reply text: 81

Inquiry: Give the observed IC50 of CCC1(c2ccc(-c3ccccc3)cc2)C(=O)NC(=O)NC1=O for 72 kDa type IV collagenase (Homo sapiens, UniProt P08253).
Reply text: 898

Inquiry: Provide IC50, system 72 kDa type IV collagenase (Homo sapiens, UniProt P08253), entry CCCCCCCCOc1ccc(CC2(C)C(=O)NC(=O)NC2=O)cc1
Reply text: 530

Next:
Inquiry: State measured IC50 of the compound CCCCCCC1(c2ccc(Oc3ccccc3)cc2)C(=O)NC(=O)NC1=O with 72 kDa type IV collagenase (Homo sapiens, UniProt P08253).
Reply text: 21

Inquiry: // fetch IC50; item: CCCCCCC1(c2ccc(-c3ccccc3)cc2)C(=O)NC(=S)NC1=O ; system: 72 kDa type IV collagenase (Homo sapiens, UniProt P08253)
Reply text: 13000
